Entries and their Ki
assayed-system: EP4 receptor (Homo sapiens)
Construct: expressed in transfected cells; membrane fraction
Sequence (P35408 whole entry): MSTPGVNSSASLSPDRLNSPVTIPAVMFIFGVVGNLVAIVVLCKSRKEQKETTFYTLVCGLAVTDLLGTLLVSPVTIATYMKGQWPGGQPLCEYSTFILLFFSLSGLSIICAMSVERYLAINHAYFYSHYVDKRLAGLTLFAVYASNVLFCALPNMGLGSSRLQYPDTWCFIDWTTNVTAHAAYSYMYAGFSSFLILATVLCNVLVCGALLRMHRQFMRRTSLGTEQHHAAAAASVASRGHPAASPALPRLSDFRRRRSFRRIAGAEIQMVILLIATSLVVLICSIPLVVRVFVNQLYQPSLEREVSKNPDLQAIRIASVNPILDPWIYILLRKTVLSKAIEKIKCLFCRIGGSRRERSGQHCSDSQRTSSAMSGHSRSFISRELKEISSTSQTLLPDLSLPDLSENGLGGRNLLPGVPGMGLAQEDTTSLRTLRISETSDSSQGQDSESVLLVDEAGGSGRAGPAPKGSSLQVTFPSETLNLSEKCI
assay-notes: Radioligand binding, EP4 receptor
measurement-parameters: [3H]PGE2 competition, HEK-293 membranes

{"compound": "CC1(C)C(=O)[C@H](CC#CCCCC(=O)O)[C@@H](/C=C/C(O)CCc2ccc3ccccc3c2)[C@@H]1O (single isomer, unassigned) [drawing 26]", "Ki [µM]": 1.86}
{"compound": "CC1(C)C(=O)[C@H](C/C=C\\CCCC(=O)O)[C@@H](/C=C/C(O)CCc2ccc3ccccc3c2)[C@@H]1O (single isomer, unassigned) [drawing 23]", "Ki [µM]": 0.014}
{"compound": "CC1(C)C(=O)[C@H](C/C=C\\CCCC(=O)O)[C@@H](/C=C/C(O)CCc2ccc3ccccc3c2)[C@@H]1O (single isomer, unassigned) [drawing 24]", "Ki [µM]": 0.111}
{"compound": "CC1(C)C(=O)[C@H](CC#CCCCC(=O)O)[C@@H](/C=C/C(O)CCc2ccc3ccccc3c2)[C@@H]1O (single isomer, unassigned) [drawing 25]", "Ki [µM]": 1.24}
